# IC50 listing for each entry below
- ASSAYED_SYSTEM: PDE4B: The catalytic domain of human PDE4B from S152-S528 (Homo sapiens)
- Construct: His6 (N); thrombin cleavage site (N); made in house; host or cells: E. coli
- Sequence (Q07343 with tags, fused parts or gaps): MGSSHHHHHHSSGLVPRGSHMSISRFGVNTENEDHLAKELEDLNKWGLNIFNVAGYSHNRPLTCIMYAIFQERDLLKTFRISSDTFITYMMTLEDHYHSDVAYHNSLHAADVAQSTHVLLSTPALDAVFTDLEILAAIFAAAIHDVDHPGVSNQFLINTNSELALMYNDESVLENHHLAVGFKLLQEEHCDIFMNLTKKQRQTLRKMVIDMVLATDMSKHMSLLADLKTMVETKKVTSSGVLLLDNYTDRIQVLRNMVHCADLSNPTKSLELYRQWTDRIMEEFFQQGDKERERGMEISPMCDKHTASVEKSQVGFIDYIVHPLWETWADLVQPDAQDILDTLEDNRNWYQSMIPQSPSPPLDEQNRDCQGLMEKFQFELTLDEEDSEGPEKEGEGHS
- ASSAY_TEXT: PDE4 IC50 determination by Scintillation Proximity Assay, PDE4B
- Type: biochemical
- EXPERIMENTAL_CONDITIONS: Table 1B, Formula I compounds; read-out: IC50 PDE4B

COMPOUND | IC50
CCOC(=O)c1cc(C(=O)c2sc(Nc3ccc(C(=O)NC4CCOC4=O)cc3)c(C#N)c2N)on1 (centres unmarked) | < 10 µM
N#Cc1c(NCC2CC2)sc(C(=O)c2cc(-c3ccccc3)no2)c1N | > 10 µM
COC(=O)C(CC(C)C)Nc1sc(C(=O)c2cc(-c3ccccc3)no2)c(N)c1C#N (centres unmarked) | < 10 µM
N#Cc1c(Nc2ccccc2Cl)sc(C(=O)c2ccc(Oc3ccccc3)cc2)c1N | < 10 µM
COC(=O)C(CCSC)Nc1sc(C(=O)c2ccc(-c3ccccn3)s2)c(N)c1C#N (centres unmarked) | < 10 µM
CCOC(=O)c1cc(C(=O)c2sc(NC(CC(C)C)C(=O)OC)c(C#N)c2N)on1 (centres unmarked) | < 10 µM
CCc1ccccc1Nc1sc(C(=O)c2ccc(OC)cc2OC)c(N)c1C#N | < 10 µM
N#Cc1c(Nc2ccccc2F)sc(C(=O)c2ccccn2)c1N | < 10 µM

* * *

- ASSAYED_SYSTEM: PDE4B: The catalytic domain of human PDE4B from S152-S528 (Homo sapiens)
- Construct: His6 (N); thrombin cleavage site (N); made in house; host or cells: E. coli
- ASSAY_TEXT: PDE4 IC50 determination by Scintillation Proximity Assay, PDE4B
- Format: biochemical
- EXPERIMENTAL_CONDITIONS: Table 1B, Formula I compounds; read-out: IC50 PDE4B
ENDPOINT_NAME: IC50

COMPOUND | MEASUREMENT
Cc1c(Nc2ccccc2)sc(C(=O)c2ccc(Cl)cc2)c1N | < 10 µM
N#Cc1c(NCCN2CCOCC2)sc(C(=O)c2cc(-c3ccccc3)no2)c1N | < 10 µM
Cc1ccc(C(=O)c2sc(NC3CCCC3)c(C#N)c2N)c(C)c1 | < 10 µM
COc1cc(C#N)c(Nc2sc(C(=O)c3ccc(Cl)cc3)c(N)c2C#N)cc1OC | < 10 µM
N#Cc1c(NC2CCCC2)sc(C(=O)c2ccc(-c3ccccn3)s2)c1N | < 10 µM
CCC(C)Nc1sc(C(=O)c2cc(-c3ccccc3)no2)c(N)c1C(N)=O (centres unmarked) | < 10 µM
N#Cc1c(Nc2ccc(Oc3ccccc3)cc2)sc(C(=O)c2ccccc2Cl)c1N | < 10 µM
CCC(C)Nc1sc(C(=O)c2cc(-c3ccc(Cl)c(Cl)c3)no2)c(N)c1C#N (centres unmarked) | < 10 µM
Cc1onc(-c2ccccc2)c1C(=O)c1sc(NC2CCOC2=O)c(C#N)c1N (centres unmarked) | < 10 µM
CCc1ccc(C(=O)c2sc3c(c2N)C(c2cccnc2)C(C(C)=O)=C(C)N3)cc1 (centres unmarked) | < 10 µM
COC(=O)C(CC(C)C)Nc1sc(C(=O)c2c(-c3ccccc3)noc2C)c(N)c1C#N (centres unmarked) | < 10 µM
Cc1cc(=O)[nH]c2sc(C(=O)c3ccc(Br)cc3)c(N)c12 | > 10 µM
N#Cc1c(NC2CC2)sc(C(=O)c2cc(-c3ccccc3)no2)c1N | < 10 µM
N#Cc1c(Nc2ccc(OC(F)F)cc2)sc(C(=O)c2ccc(OC(F)F)cc2)c1N | < 10 µM
CCc1ccccc1Nc1sc(C(=O)c2coc3ccccc23)c(N)c1C#N | < 10 µM
Cc1cc(NC(=O)c2sc(Nc3ccccc3)c(C#N)c2N)no1 | < 10 µM
CC(C)Nc1sc(C(=O)c2ccc(Oc3ccccc3)cc2)c(N)c1C#N | < 10 µM

* * *

- ASSAYED_SYSTEM: PDE4D (Homo sapiens, UniProt Q08499)
- Construct: PDE4D: The catalytic domain of human PDE4B from S3 16-V692; His6 (N); thrombin cleavage site (N); made in house; host or cells: E. coli
- Sequence (Q08499 380-756): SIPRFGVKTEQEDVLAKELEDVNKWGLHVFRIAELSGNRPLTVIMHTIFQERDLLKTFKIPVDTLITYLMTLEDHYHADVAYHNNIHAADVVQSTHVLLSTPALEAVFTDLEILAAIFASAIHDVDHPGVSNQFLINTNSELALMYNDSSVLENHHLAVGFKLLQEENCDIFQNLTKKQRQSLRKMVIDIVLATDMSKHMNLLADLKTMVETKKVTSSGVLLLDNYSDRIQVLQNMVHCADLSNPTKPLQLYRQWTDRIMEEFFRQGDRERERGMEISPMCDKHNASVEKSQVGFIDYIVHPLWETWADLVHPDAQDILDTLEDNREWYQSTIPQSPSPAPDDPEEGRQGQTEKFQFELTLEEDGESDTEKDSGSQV
- ASSAY_TEXT: PDE4 IC50 determination by Scintillation Proximity Assay, PDE4D
- Format: biochemical
- EXPERIMENTAL_CONDITIONS: Table 1B, Formula I compounds; read-out: IC50 PDE4D

COMPOUND | IC50
COc1ccc(C(=O)c2sc(Nc3ccccc3F)c(C#N)c2N)c(OC)c1 | < 10 µM
N#Cc1c(NCCN2CCCCC2)sc(C(=O)c2cc(-c3ccccc3)no2)c1N | > 10 µM
CN1CCN(C(=O)C(=O)c2sc(NC3CCCC3)c(C#N)c2N)CC1 | > 10 µM
COC(=O)C(CC(C)C)Nc1sc(C(=O)c2cc(OC)ccc2OC)c(N)c1C#N (stereo not drawn) | > 10 µM
COc1ccccc1Nc1sc(C(=O)c2ccccc2)c(N)c1C#N | < 10 µM
N#Cc1c(NC2CCCC2)sc(C(=O)c2ccc(-c3ccccc3)s2)c1N | < 10 µM
COc1ccc(OC)c(C(=O)c2sc(NC3CCCC3)c(C#N)c2N)c1 | < 10 µM
Cc1c(C(=O)c2sc(NC3CCOC3=O)c(C#N)c2N)cnn1-c1ccccc1 (stereo not drawn) | > 10 µM
COC(=O)C(CCSC)Nc1sc(C(=O)c2ccc(C)cc2C)c(N)c1C#N (stereo not drawn) | > 10 µM

* * *

# IC50 listing for each entry below
- ASSAYED_SYSTEM: PDE4D (Homo sapiens)
- Construct: PDE4D: The catalytic domain of human PDE4B from S3 16-V692; His6 (N); thrombin cleavage site (N); made in house; host or cells: E. coli
- ASSAY_TEXT: PDE4 IC50 determination by Scintillation Proximity Assay, PDE4D
- Format: biochemical
- EXPERIMENTAL_CONDITIONS: second part of Table 2B (2-23 to 2-103), column 5; column is PDE4D in first part; read-out: IC 50 vs. indicated assay h TNFα

MOLECULE | ASSAYED_SYSTEM | IC50
Nc1nc(NC2CCCC2)sc1C(=O)c1ccccc1Cl [Compound 2-75] | PDE4D (Homo sapiens) | > 10 µM
Nc1nc(Nc2ccc(Cl)cc2)sc1C(=O)C1CCCCC1 [Compound 2-91] | PDE4D (Homo sapiens) | > 10 µM
Nc1nc(Nc2c(Cl)cccc2Cl)sc1C(=O)c1ccccc1 [Compound 2-30] | PDE4D (Homo sapiens) | < 10 µM
Nc1nc(Nc2ccc(Oc3ccccc3)cc2)sc1C(=O)c1ccc(Oc2ccccc2)cc1 [Compound 2-47] | PDE4D (Homo sapiens) | > 10 µM
Nc1nc(Nc2ccccc2)sc1C(=O)c1ccccc1 [Compound 2-25] | PDE4D (Homo sapiens) | < 10 µM
COc1ccc(C(=O)c2sc(Nc3ccccc3)nc2N)cc1 [Compound 2-37] | PDE4D (Homo sapiens) | < 10 µM
Nc1nc(Nc2ccc(Oc3ccccc3)cc2)sc1C(=O)c1cccc(C(F)(F)F)c1 [Compound 2-57] | PDE4D (Homo sapiens) | > 10 µM
N#Cc1cccc(Nc2nc(N)c(C(=O)C3CCCC3)s2)c1 [Compound 2-100] | PDE4D (Homo sapiens) | < 10 µM
Nc1nc(NC2CCCC2)sc1C(=O)c1ccc(OC(F)F)cc1 [Compound 2-84] | PDE4D (Homo sapiens) | < 10 µM

* * *

- ASSAYED_SYSTEM: PDE4D (Homo sapiens, UniProt Q08499)
- Construct: PDE4D: The catalytic domain of human PDE4B from S3 16-V692; His6 (N); thrombin cleavage site (N); made in house; host or cells: E. coli
- ASSAY_TEXT: PDE4 IC50 determination by Scintillation Proximity Assay, PDE4D
- Assay type: biochemical
- EXPERIMENTAL_CONDITIONS: second part of Table 2B (2-23 to 2-103), column 5; column is PDE4D in first part; read-out: IC 50 vs. indicated assay h TNFα
# IC50 listing for each entry below
ENDPOINT_NAME: IC50

CHEMICAL_STRING | MEASUREMENT
Nc1nc(Nc2ccc(Oc3ccccc3)cc2)sc1C(=O)C1CC1 | < 10 µM
N#Cc1cccc(Nc2nc(N)c(C(=O)c3ccc(Oc4ccccc4)cc3)s2)c1 | < 10 µM
Nc1nc(Nc2c(Cl)cc(Cl)cc2Cl)sc1C(=O)c1ccccc1 | > 10 µM
Nc1nc(NC2CC2)sc1C(=O)c1ccc(Oc2ccccc2)cc1 | < 10 µM
COc1cccc(C(=O)c2sc(Nc3ccccc3F)nc2N)c1 | < 10 µM
Nc1nc(Nc2ccccc2F)sc1C(=O)c1ccc(OC(F)F)cc1 | < 10 µM
Nc1nc(Nc2ccccc2Cl)sc1C(=O)c1ccccc1 | < 10 µM
Nc1nc(Nc2c(Cl)cccc2Cl)sc1C(=O)CC1CCCC1 | > 10 µM
N#Cc1cccc(Nc2nc(N)c(C(=O)c3cccc(C(F)(F)F)c3)s2)c1 | < 10 µM
